Hi there, I'd appreciate the recorded Kd for every entry that follows.
target: T1, extracellular domain (ECD) of human epidermal growth factor receptor 2 (HER2) (Homo sapiens, UniProt P04626); experiment: SPR; BIAcore T200; HER2/ECD immobilised on a CM5 chip by amine coupling to 1000 RU; IgG flowed in PBST (0.05% Tween 20) at 30 uL/min; regeneration 10 mM glycine pH 1.5; global fit to a 1:1 binding model; settings: both partners purified
T1 construct: human epidermal growth factor receptor 2 (HER2), extracellular domain; also called HER2/ECD

Ask: // returns reported Kd for input GH2-61 IgG (antibody, V domains shown, source: HEK293-F, transient transfection, purified (Protein A, Superdex 200)) VH: EVQLVESGGGLVQPGGSLRLSCAASGFTINNWGIHWVRQAPGKGLEWVAGIWPYGGYTYYADSVKGRFTISADTSKNTAYLQMNSLRAEDTAVYYCARFYNHHGGVMDYWGQGTLVTVSS VL: DIQMTQSPSSLSASVGDRVTITCRASQDVGSNVAWYQQKPGKAPKLLISWSTSLYSGVPSRFSGSGSGTDFTLTISSLQPEDFATYYCQQYGGWPITFGQGTKVEIK
Result: 0.27 nM

Ask: Kd lookup needed for GH2-16 IgG (antibody, V domains shown, source: HEK293-F, transient transfection, purified (Protein A, Superdex 200)) VH: EVQLVESGGGLVQPGGSLRLSCAASGFTINNWGIHWVRQAPGKGLEWVAGIWPFGGYTYYADSVKGRFTISADTSKNTAYLQMNSLRAEDTAVYYCARFDYLNNGGMDYWGQGTLVTVSS VL: DIQMTQSPSSLSASVGDRVTITCRASQDVYSSVAWYQQKPGKAPKLLISYTSYLYSGVPSRFSGSGSGTDFTLTISSLQPEDFATYYCQQYYGGPMTFGQGTKVEIK , thanks.
Result: 1.2 nM
